Test system: HeLa
Assay: Induction of p21 promoter gene in human HeLa cells assessed as percent induction activity at 10 uM relative to SNDX-275
Assay type: functional
recorded-endpoint: Activity (%)
One number for each entry, in %.

molecule | unit-of-measure | Activity
CN(C)CCNC(C(=O)Nc1ccc(C(F)(F)F)cc1)c1ccc(/C=C/C(=O)Nc2ccccc2N)cc1 (stereo not drawn) | % | 134
Nc1ccccc1NC(=O)/C=C/c1ccc(C(NCCN2CCCCC2)C(=O)Nc2ccc(OC(F)(F)F)cc2)cc1 (stereo not drawn) | % | 136
Nc1ccccc1NC(=O)/C=C/c1ccc(C(NCCN2CCCCC2)C(=O)Nc2ccc(-c3ccc(C(F)(F)F)c(F)c3)cc2)cc1 (stereo not drawn) | % | 92

Please look at the items below and tell me Activity for each one, in order.
1. Nc1ccccc1NC(=O)/C=C/c1ccc(C(C(=O)Nc2ccc(C(F)(F)F)cc2)N2CCCC2)cc1 (stereo not drawn)
2. Nc1ccccc1NC(=O)/C=C/c1ccc(C(NCCC2(O)CCOCC2)C(=O)Nc2ccc(C(F)(F)F)cc2)cc1 (stereo not drawn)
3. N#Cc1ccc(-c2ccc(NC(=O)C(NCCN3CCCCC3)c3ccc(/C=C/C(=O)Nc4ccccc4N)cc3)cc2)cc1 (stereo not drawn)
4. Nc1ccccc1NC(=O)/C=C/c1ccc(C(NCCN2CCCCC2)C(=O)Nc2ccc(-c3ccc(C(F)(F)F)cc3F)cc2)cc1 (stereo not drawn)
5. Nc1ccccc1NC(=O)/C=C/c1ccc(C(N)C(=O)Nc2ccc(C(F)(F)F)cc2)cc1 (stereo not drawn)

OUTPUT:
1. 89
2. 96
3. 157
4. 153
5. 73
